Molecular target: CRTH2 (KB8 cells) (Homo sapiens)
Construct: host or cells: KB8 cells (human CRTH2 expression cell)
Sequence (Q9Y5Y4 1-395): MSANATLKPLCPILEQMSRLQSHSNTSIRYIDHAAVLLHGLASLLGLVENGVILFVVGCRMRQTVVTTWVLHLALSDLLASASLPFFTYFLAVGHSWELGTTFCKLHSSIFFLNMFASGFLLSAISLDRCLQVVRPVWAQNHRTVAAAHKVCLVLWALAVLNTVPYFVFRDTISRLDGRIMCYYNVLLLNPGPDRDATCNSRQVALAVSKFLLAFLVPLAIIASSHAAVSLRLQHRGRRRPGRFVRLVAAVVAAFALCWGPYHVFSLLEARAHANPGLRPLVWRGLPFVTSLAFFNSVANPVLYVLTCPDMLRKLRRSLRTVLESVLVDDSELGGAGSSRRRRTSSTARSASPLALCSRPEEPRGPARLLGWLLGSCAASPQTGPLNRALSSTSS
Assay: CRTH2 antagonist test (PGD2-induced intracellular calcium ion concentration increase in KB8 cells)
Assay type: cell-based
Details: PGD2 final concentration 100 nM, Fluo-4-AM fluorescence, read-out: antagonist activity (IC50 value, inhibition of calcium ion concentration increase)
Reported Metric: IC50

Give CRTH2 (KB8 cells) (Homo sapiens) IC50 for O=C(O)Cc1cnc(C(=O)c2ccc(NC(=O)c3cccnn3)cc2)c2ccccc12 [Example 98] ≥ 1000 nM

Look up IC50 with CRTH2 (KB8 cells) (Homo sapiens) for this compound: O=C(O)Cc1cnc(C(=O)c2ccc(NC(=O)c3cc4ccccc4s3)cc2)c2ccccc12 [Example 119] < 50 nM

Short answer please: IC50, CRTH2 (KB8 cells) (Homo sapiens), entry Cc1ccc2sc(CCNC(=O)c3ccc(Cc4ncc(CC(=O)O)c5ccccc45)cc3)cc2c1 [Example 242] < 50 nM

Return IC50 measured with CRTH2 (KB8 cells) (Homo sapiens) given this compound: O=C(O)Cc1cnc(Cc2ccc(C(=O)NCCc3ccc(O)cc3)cc2)c2ccccc12 [Example 196] 500 to 1000 nM

Could you now consider this next compound?
Can you look up IC50 on CRTH2 (KB8 cells) (Homo sapiens) for Cc1cc(C)cc(C(=O)Nc2ccc(C(=O)c3ncc(CC(=O)O)c4ccccc34)cc2)c1 [Example 103] ? < 50 nM
